Every entry's value here was drawn from paper PMC3496402.

assay: rat liver microsomal incubations, intrinsic clearance; format: in vitro ADME; details: Sprague-Dawley, microsomes, pH 7.4
Could you please report measured log10(microsomal CLint at 1 µM) for the items listed next?
Hi team, quick reminder: these entries are log10 of microsomal CLint at 1 µM (µL/min/mg).

CCc1cc2c(C(=O)c3cc(Br)c(O)c(Br)c3)cc(Br)c(O)c2o1 [(26)] | 1.54
CCc1oc2ccc(OC)cc2c1C(=O)c1ccc(O)cc1 [(2)] | 2.61
CCc1oc2cc(OC)ccc2c1C(=O)c1cc(Br)c(O)c(Br)c1 [(3)] | 2.32
CCc1cc2cc(O)cc(C(=O)c3cc(Br)c(O)c(Br)c3)c2o1 [(22)] | 2.66
CCc1oc2cc(O)ccc2c1C(=O)c1cc(Br)c(O)c(Br)c1 [(5)] | 1.29

Lab note: each compound below needs its log10(microsomal CLint at 1 µM) filled in.
1. CCc1cc2cc(OC)cc(C(=O)c3ccc(OC)cc3)c2o1 [(20)]
2. CCc1oc2ccc(O)cc2c1C(=O)c1cc(Br)c(O)c(Br)c1 [(8)]
3. CCc1oc2ccc(F)cc2c1C(=O)c1cc(Br)c(O)c(Br)c1 [(9)]
4. CCc1cc2c(C(=O)c3ccc(OC)cc3)cc(Br)c(O)c2o1 [(23)]
5. CCc1cc2c(C(=O)c3cc(Br)c(O)c(Br)c3)c(OC)ccc2o1 [(24)]

1. 2.85
2. 1.72
3. 2.15
4. 2.08
5. 2.51

###

target: hURAT1 (SLC22A12) (Homo sapiens); test: inhibition of 14C-urate uptake in oocytes expressing hURAT1; assay type: cell-based; conditions: hURAT1 IC50 (nM) ± SD, inhibition of 14C-urate uptake in oocytes expressing hURAT1
Sequence (Q96S37 whole entry): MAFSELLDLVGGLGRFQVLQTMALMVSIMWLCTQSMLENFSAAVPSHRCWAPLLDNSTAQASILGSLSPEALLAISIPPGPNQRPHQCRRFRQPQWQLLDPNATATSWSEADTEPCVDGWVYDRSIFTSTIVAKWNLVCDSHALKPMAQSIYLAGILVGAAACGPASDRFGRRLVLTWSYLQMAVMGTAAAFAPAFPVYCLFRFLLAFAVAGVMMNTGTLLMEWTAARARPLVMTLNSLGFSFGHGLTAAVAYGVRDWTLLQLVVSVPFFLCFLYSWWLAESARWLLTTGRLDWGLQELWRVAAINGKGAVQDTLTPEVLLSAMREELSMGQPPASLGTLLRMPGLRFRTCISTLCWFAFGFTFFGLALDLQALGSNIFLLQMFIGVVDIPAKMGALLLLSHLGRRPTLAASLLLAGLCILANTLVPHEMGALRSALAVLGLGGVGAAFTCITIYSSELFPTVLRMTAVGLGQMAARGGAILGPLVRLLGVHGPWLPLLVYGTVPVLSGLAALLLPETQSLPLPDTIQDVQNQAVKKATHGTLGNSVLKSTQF
# strict inequality: IC50 < 1000 nM yields 1.0, everything else yields 0.0

# count of solved cases: 6
CCc1oc2ccccc2c1C(=O)c1cc(Cl)c(O)c(Cl)c1 | 1.0
CCc1oc2ccccc2c1C(=O)c1cc(Br)c(OC)c(Br)c1 | 0.0
CCCCc1oc2ccccc2c1C(=O)c1cc(Br)c(O)c(Br)c1 | 0.0
CCc1oc2ccccc2c1C(=O)c1ccc(O)c(F)c1 | 0.0
CCc1oc2ccccc2c1C(=O)c1ccc(O)c(Cl)c1 | 1.0
CCc1oc2ccccc2c1C(=O)c1ccc(O)c(Br)c1 | 1.0

Please indicate whether the reported IC50 of CCc1oc2ccccc2c1C(=O)c1cc(C)c(O)c(C)c1 is strictly below 1000 nM.
0.0

Please indicate whether the reported IC50 of CCc1oc2ccccc2c1C(=O)c1ccc(O)c(I)c1 is strictly below 1000 nM.
0.0

###

experiment: rat pharmacokinetics, intravenous; type: in vivo, male Sprague-Dawley rats; details: male, Sprague-Dawley, rat, whole blood, iv, 0.5 mg/kg
Could you please report measured AUC for the items listed next?
Numbers only, in ng·h/mL.

Worked examples, 5 compounds total:
CCc1oc2ccc(F)cc2c1C(=O)c1cc(Br)c(O)c(Br)c1 | 5260
CCc1oc2ccccc2c1C(=O)c1cc(Br)c(O)c(Br)c1 [(1), reference compound] | 9070
CCc1oc2cc(OC)ccc2c1C(=O)c1cc(Br)c(O)c(Br)c1 | 9600
CCc1oc2cc(O)ccc2c1C(=O)c1cc(Br)c(O)c(Br)c1 | 6160
CCc1oc2ccc(OC)cc2c1C(=O)c1cc(Br)c(O)c(Br)c1 | 2630

Query compound follows.
Endpoint output: AUC of CCc1oc2ccc(O)cc2c1C(=O)c1cc(Br)c(O)c(Br)c1 . Value?
940

###

experiment: rat liver microsomal incubations, intrinsic clearance; assay type: in vitro ADME; conditions: Sprague-Dawley, microsomes, pH 7.4
The label depends only on microsomal CLint at 1 µM: 1.0 if it is at least 200 µL/min/mg, 0.0 if it is smaller.

CCc1oc2cc(OC)c(Br)cc2c1C(=O)c1cc(Br)c(O)c(Br)c1 [(4)] | 0.0
CCc1cc2c(C(=O)c3cc(Br)c(O)c(Br)c3)c(O)ccc2o1 [(25)] | 0.0
CCc1oc2cc(Br)c(O)c(Br)c2c1C(=O)c1ccc(OC)cc1 [(7)] | 1.0

Hi team, for CCc1oc2ccc(OC)cc2c1C(=O)c1cc(Br)c(O)c(Br)c1 [(6)] , is the recorded microsomal CLint at 1 µM at or above 200 µL/min/mg?
0.0

Hi team, for CCc1oc2ccccc2c1C(=O)c1cc(Br)c(O)c(Br)c1 [(1), reference compound] , is the recorded microsomal CLint at 1 µM at or above 200 µL/min/mg?
0.0

Hi team, for CCc1cc2cc(OC)cc(C(=O)c3cc(Br)c(O)c(Br)c3)c2o1 [(21)] , is the recorded microsomal CLint at 1 µM at or above 200 µL/min/mg?
1.0
